Recorded values, source patent US20250127773A1.

Known IC50 of a selection of molecules
Target: Beta-3 Adrenergic Receptor (Homo sapiens, UniProt P13945)
Construct: expressed in transfected cells; host or cells: CHO-K1
Sequence (P13945 whole entry): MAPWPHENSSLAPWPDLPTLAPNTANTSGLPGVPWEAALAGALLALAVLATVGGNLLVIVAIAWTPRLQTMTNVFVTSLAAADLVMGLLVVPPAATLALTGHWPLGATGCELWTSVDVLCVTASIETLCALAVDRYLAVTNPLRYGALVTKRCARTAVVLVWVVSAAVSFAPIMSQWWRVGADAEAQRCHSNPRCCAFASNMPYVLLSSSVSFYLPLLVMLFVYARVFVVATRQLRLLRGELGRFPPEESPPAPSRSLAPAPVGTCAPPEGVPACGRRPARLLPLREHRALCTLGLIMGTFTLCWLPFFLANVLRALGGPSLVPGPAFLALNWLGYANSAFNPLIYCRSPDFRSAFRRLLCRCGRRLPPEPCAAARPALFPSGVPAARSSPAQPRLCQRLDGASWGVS
Experiment: HTRF cAMP antagonist assay, IC50 determination
Format: cell-based
Conditions: CHO-K1 cells stably expressing recombinant receptor; vs isoproterenol at EC90; unit nM
Please give a number only; it is taken to be in nM.

# example entries with known answers
[
  {
    "Molecule": "C[C@@H](NS(=O)(=O)c1cccc(OC[C@@H](O)CNC2COC3(CCN(S(=O)(=O)c4ccc5ccccc5c4)CC3)C2)c1)C1CC1 (stereo partly drawn) [Compound B93]",
    "Target or system": "Beta-3 Adrenergic Receptor (Homo sapiens, UniProt P13945)",
    "Recorded number": 112
  },
  {
    "Molecule": "CNS(=O)(=O)c1cccc(OCC(O)CNC2COC3(CCN(S(=O)(=O)c4cccc(-c5cnn(C)c5)c4)CC3)C2)c1 (stereo not drawn) [Compound B216]",
    "Target or system": "Beta-3 Adrenergic Receptor (Homo sapiens, UniProt P13945)",
    "Recorded number": 57.7
  }
]

Please tell me: IC50 of CCOCCNS(=O)(=O)c1cccc(OCC(O)CNC2COC3(CCN(S(=O)(=O)c4ccc5ccccc5c4)CC3)C2)c1 (stereo not drawn) [Compound B47] , system Beta-3 Adrenergic Receptor (Homo sapiens, UniProt P13945)?
155
